The molecules listed here are annotated with their GI50.
# Test system: UO-31
# assay.name: NCI tumour cell line growth inhibition, 48 h
The source made the active and inactive calls. No stated cut-off is given here; in the data, active = GI50 up to about 1.1 µM and inactive = higher.
quantity: GI50

{"molecule": "O=C1OCC2=C1C(c1ccc3c(c1)OCO3)c1cc3c(cc1O2)OCO3 (stereo unspecified)", "quantity": "GI50", "measured.result": "1.59 µM (inactive)"}
{"molecule": "Cc1cc(-c2nc3cccc(F)c3s2)ccc1N", "quantity": "GI50", "measured.result": "> 45 µM (inactive)"}
{"molecule": "CCSC(=O)/C=C1\\CN(C(=O)OC(C)(C)C)C1C(=O)OC(C)(C)C (stereo unspecified)", "quantity": "GI50", "measured.result": "5.41 µM (inactive)"}
{"molecule": "c1ccc2c(c1)-c1nc3ccccc3cc1C2N1CCOCC1 (stereo unspecified)", "quantity": "GI50", "measured.result": "1.37 µM (inactive)"}
{"molecule": "CC1=NN=C(NCCN(C)C)C/C1=C/c1ccccc1Cl", "quantity": "GI50", "measured.result": "> 100 µM (inactive)"}
{"molecule": "COc1ccc(C(=O)C(c2ccc(OC)cc2)C2(O)C(=O)Nc3c(Cl)cc(Cl)cc32)cc1 (stereo unspecified)", "quantity": "GI50", "measured.result": "27.7 µM (inactive)"}

====

# Test system: NCI-H226
# assay.name: NCI tumour cell line growth inhibition, 48 h
Activity calls are given as the source filed them. No stated cut-off is given here; in the data, active = GI50 up to about 1.1 µM and inactive = higher.

{"molecule": "CN(C)Cc1cc(C(C)(C)C)ccc1-c1ccc(C(C)(C)C)cc1CN(C)C", "GI50": "> 100 µM (inactive)"}
{"molecule": "N=c1c2c(=S)n(-c3ccccc3)c(=S)n(-c3ccccc3)c2nc(SCCCN2CCCCC2)n1-c1ccccc1", "GI50": "2.35 µM (inactive)"}
{"molecule": "COC(=O)c1cc(C)n(NC(=O)OC(C)(C)C)c1C", "GI50": "> 100 µM (inactive)"}
{"molecule": "CC(C)(C)NCC(O)c1ccc(O)c(CO)n1 (stereo not given)", "GI50": "> 100 µM (inactive)"}
{"molecule": "CN(C)c1ccc(/C=C(\\C#N)c2nc(-c3cc4ccccc4oc3=O)cs2)cc1", "GI50": "13.6 µM (inactive)"}
{"molecule": "COc1ccc(/C=N/c2c(O)ccc3ccccc23)cc1OC", "GI50": "> 100 µM (inactive)"}
{"molecule": "O=C1Oc2cc3c(c4cccc1c24)O[C@H](c1ccccc1)[C@@H](c1ccccc1)[C@@H]3c1ccc(Cl)cc1", "GI50": "76 µM (inactive)"}
{"molecule": "O=c1n(N=[S+]([O-])(c2ccccc2)c2ccccc2)c(=O)n2n1C1C=CC2CC1", "GI50": "> 100 µM (inactive)"}
{"molecule": "CCOC1NC(=O)Oc2cc3ccccc3cc21 (stereo not given)", "GI50": "> 100 µM (inactive)"}
{"molecule": "N#C[C@H](C(=O)c1ccccc1F)c1nc2ccccc2[nH]1", "GI50": "> 100 µM (inactive)"}

====

# System: OVCAR-5
# assay.name: NCI tumour cell line growth inhibition, 48 h
Activity calls are given as the source filed them. Rule as the data show it: active = GI50 up to about 1.1 µM and inactive = higher.
quantity: GI50

{"compound": "O=C1/C(=C/c2ccc(Br)s2)NC(=S)N1c1ccccc1", "measured.result": "> 100 µM (inactive)"}
{"compound": "[O-][Cl+3]([O-])([O-])[O-].c1ccc(-c2csc3c4ccccc4c4ccccc4[n+]23)cc1", "measured.result": "14.3 µM (inactive)"}
{"compound": "Nc1nc(N)c(N=O)c(Nc2ccc(Br)cc2)n1", "measured.result": "31.2 µM (inactive)"}
{"compound": "O=c1c2nc3ccccc3c(=O)n2ncn1-c1ccccc1Cl", "measured.result": "> 100 µM (inactive)"}
{"compound": "Cc1nc(SCC(N)=O)c2sc(=S)n(-c3ccccc3)c2n1", "measured.result": "> 10 µM (inactive)"}
{"compound": "NC(Cc1c[nH]c2ccccc12)C(=O)O (stereo not drawn) [DL-TRYPTOPHAN]", "measured.result": "> 300 µM (inactive)"}
{"compound": "CC(=O)N1c2ccccc2C23CCN4CC5=CCOC(O)C(C5CC42)C13 (stereo unspecified)", "measured.result": "> 100 µM (inactive)"}
{"compound": "CCCS(=O)(=O)O", "measured.result": "> 100 µM (inactive)"}
{"compound": "COc1ccc(/C=N/n2c(C)nc3c(sc(=S)n3-c3ccccc3)c2=O)cc1", "measured.result": "> 100 µM (inactive)"}
{"compound": "O=C(N/N=C/C=C/c1ccccc1)[C@H](O)[C@@H](O)C(=O)N/N=C/C=C/c1ccccc1", "measured.result": "> 100 µM (inactive)"}
{"compound": "CCSCC(=O)N1CCc2c([nH]c3ccccc23)C1=O", "measured.result": "91 µM (inactive)"}

Where these numbers come from: ChEMBL document CHEMBL1201862
